pIC50: −log10 of the molar value.
Reported pIC50 for target or system 5-HT2A receptors (UniProt P14842), by entry.

{"molecule": "CN1CCC(N(C)Cc2cnn(-c3ccc(-c4ccc(F)cc4)cc3)c2-c2ccco2)C1 (stereo not drawn) [Example 543]", "pIC50": 8.40}
{"molecule": "CN1CCN(Cc2cnn(-c3ccc(-c4ccccc4F)cc3)c2-c2ccco2)CC1", "pIC50": 7.60}
{"molecule": "CCN1CCN(Cc2cnn(-c3ccc(-c4ccc(F)cc4)cc3)c2-c2c(C)noc2C)CC1", "pIC50": 7.00}

* * *

Quick list: IC50 per entry.
Target: 5 HT2C receptor (Homo sapiens, UniProt P28335)
Sequence (P28335 33-458): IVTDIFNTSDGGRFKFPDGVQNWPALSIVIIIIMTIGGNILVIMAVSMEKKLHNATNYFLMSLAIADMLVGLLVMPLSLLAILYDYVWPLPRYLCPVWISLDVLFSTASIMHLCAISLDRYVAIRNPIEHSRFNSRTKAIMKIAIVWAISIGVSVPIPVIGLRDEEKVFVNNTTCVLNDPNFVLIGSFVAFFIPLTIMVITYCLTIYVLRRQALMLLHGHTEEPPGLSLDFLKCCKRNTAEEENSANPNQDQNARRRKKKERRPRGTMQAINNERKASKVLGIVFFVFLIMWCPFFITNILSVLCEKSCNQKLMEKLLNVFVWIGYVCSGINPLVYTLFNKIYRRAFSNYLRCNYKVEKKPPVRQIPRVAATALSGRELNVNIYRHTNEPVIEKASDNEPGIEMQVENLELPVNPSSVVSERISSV

{"molecule": "COc1ccc(-c2ccc(-n3ncc(CN4CCC(O)C4)c3-c3ccco3)cc2)cc1 (stereo not drawn)", "measure unit": "nM", "IC50": 630}
{"molecule": "CN1CCN(Cc2cnn(-c3ccc(-c4ccc5c(c4)OCO5)cc3)c2-c2ccco2)CC1", "measure unit": "nM", "IC50": 170}
{"molecule": "c1coc(-c2c(CN3CCN(C4CCCC4)CC3)cnn2-c2ccc(-c3ccc4c(c3)OCO4)cc2)c1", "measure unit": "nM", "IC50": 1000}
{"molecule": "CN(C)CCN(C)Cc1cnn(-c2ccc(-c3ccc(F)cc3)cc2)c1-c1ccco1", "measure unit": "nM", "IC50": 1000}
{"molecule": "COc1cccc(-c2c(CN(C)C)cnn2-c2ccc(-c3ccc(F)cc3)cc2)c1", "measure unit": "nM", "IC50": 510}
{"molecule": "OC1CCN(Cc2cnn(-c3ccc(-c4ccc(F)cc4)cc3)c2-c2cccc(Cl)c2)C1 (stereo not drawn)", "measure unit": "nM", "IC50": 1000}
{"molecule": "Fc1cccc(-c2ccc(-n3ncc(CN4CCNCC4)c3-c3ccco3)cc2)c1", "measure unit": "nM", "IC50": 150}
{"molecule": "OC1CCN(Cc2cnn(-c3ccc(-c4ccc(F)cc4)cn3)c2-c2ccco2)C1 (stereo not drawn)", "measure unit": "nM", "IC50": 1000}
{"molecule": "CN1CCN(Cc2cnn(-c3ccc(-c4ccc5c(c4)OCO5)cc3)c2-c2ccccc2F)CC1", "measure unit": "nM", "IC50": 510}
{"molecule": "CCN1CCN(Cc2cnn(-c3ccc(-c4ccc(F)cc4)cc3)c2-c2ccco2)CC1", "measure unit": "nM", "IC50": 310}
{"molecule": "CN1CCN(Cc2cnn(-c3ccc(-c4ccsc4)cc3)c2-c2ccccc2)CC1", "measure unit": "nM", "IC50": 490}
{"molecule": "CCN1CCN(Cc2cnn(-c3ccc(-c4ccc5c(c4)OCCO5)cc3)c2-n2cccc2)CC1", "measure unit": "nM", "IC50": 1000}
{"molecule": "COc1ccc(-c2ccc(-n3ncc(CN4CCNCC4)c3-c3ccco3)cc2)cc1", "measure unit": "nM", "IC50": 200}
{"molecule": "CN1CCN(C(=O)c2cnn(-c3ccccc3)c2NC(=O)c2ccccc2F)CC1", "measure unit": "nM", "IC50": 1000}
{"molecule": "OC1CCN(Cc2cnn(-c3ccc(-c4ccc5c(c4)OCO5)cc3)c2-c2ccco2)C1 (stereo not drawn)", "measure unit": "nM", "IC50": 410}
{"molecule": "CCN(CC)Cc1cnn(-c2ccc(-c3ccc4c(c3)OCO4)cc2)c1-c1ccco1", "measure unit": "nM", "IC50": 610}
{"molecule": "COc1ccc(-c2ccc(-n3ncc(CN4CCN(C)CC4)c3-c3ccccc3F)cc2)cc1OC", "measure unit": "nM", "IC50": 1000}
{"molecule": "CN1CCN(Cc2cnn(-c3ccc(-c4ccncc4)cc3)c2-c2ccccc2F)CC1", "measure unit": "nM", "IC50": 1000}
{"molecule": "CN1CCN(Cc2cnn(-c3ccc(-c4ccc(N(C)C)cc4)cc3)c2-c2ccccc2F)CC1", "measure unit": "nM", "IC50": 1000}
{"molecule": "CN1CCN(Cc2cnn(-c3ccc(-c4cccn4C(=O)OC(C)(C)C)cc3)c2-c2ccccc2F)CC1", "measure unit": "nM", "IC50": 930}
{"molecule": "CN(C)CCCN(C)Cc1cnn(-c2ccc(-c3ccc(F)cc3)cc2)c1-c1ccco1", "measure unit": "nM", "IC50": 810}
